- assayNotes: physchem
- settings: pH 7.4, aqueous buffer, thermodynamic from solid
measuredParameter: solubility (µg/mL)
Return type: number; implicit unit µg/mL.

Give its solubility value. Item: "Cc1cc(C)cc(C(=O)N(NC(=O)c2ccc3c(c2C)OCCO3)C(C)(C)C)c1"
4.3

###

- studySystem: GAL4 DBD (1-147)-CfEcR(DEF)/VP16AD-βRXREF-LmUSPEF (Choristoneura fumiferana)
- assayNotes: cell-based
- settings: 33 uM ligand; RLU ligand treated / RLU DMSO treated cells; average of two wells
# maps each entry to its Fold Induction, 27-63 Assay, 33 uM
A bare number is all that is needed in reply.

Guide cases for Fold Induction, 27-63 Assay, 33 uM, answers given:
Give its Fold Induction, 27-63 Assay, 33 uM value. Item: COc1ccc(OC)c(C(=O)N(NC(=O)c2cccc(C)c2C)C(C)(C)C)c1 [RG-100763]
1609

For CCc1c(OC)cccc1C(=O)NN(C(=O)c1c(F)cccc1F)C(C)(C)C [RG-115033] then?
1256

For COc1cc(C(=O)NN(C(=O)c2cc(C)cc(C)c2)C(C)(C)C)ccc1C [RG-101585] then?
1495

For Cc1c(C(=O)NN(C(=O)c2cc(F)c(Cl)cc2Cl)C(C)(C)C)ccc2c1CCCO2 [RG-115539] then?
534

Continuing:
Give its Fold Induction, 27-63 Assay, 33 uM value. Item: CC(C)(C)N(NC(=O)c1ccc2c(c1)OCO2)C(=O)c1ccc(F)cc1Cl [RG-101048]
1453

For COc1cc(C)cc(C(=O)N(NC(=O)c2cccc(OC)c2C)C(C)(C)C)c1 [RG-100767] then?
2171

For Cc1c(C(=O)NN(C(=O)c2ccc(F)cc2)C(C)(C)C)ccc2c1OCCO2 [RG-100425] then?
1099

###

- studySystem: GAL4 DBD-CfEcR(DEF)/VP16AD-MmRXRE (Choristoneura fumiferana, UniProt O77240)
- assayNotes: 13B3 Assay (CHO stable cell line, luciferase reporter)
- settings: 3.3 uM ligand; RLU ligand treated / RLU DMSO treated cells; average of two wells
# maps each entry to its Fold Induction, 13B3 Assay, 3.3 uM
A bare number is all that is needed in reply.

Guide cases for Fold Induction, 13B3 Assay, 3.3 uM, answers given:
// lookup Fold Induction, 13B3 Assay, 3.3 uM | system=GAL4 DBD-CfEcR(DEF)/VP16AD-MmRXRE (Choristoneura fumiferana, UniProt O77240) | key= "CCc1c(OC)cccc1C(=O)NN(C(=O)c1cc(C)cc(C)c1)C(C)(C)C=NNC(N)=O"
6

For "CCc1ccc(C(=O)NN(C(=O)c2ccc(OC)nc2OC)C(C)(C)C)c(F)c1" then?
2027

For "Cc1cc(C)cc(C(=O)N(NC(=O)c2ccc3c(c2)CCCC3)C(C)(C)C)c1" then?
2462

For "Cc1cc(C)cc(C(=O)N(NC(=O)c2cccc(I)c2C)C(C)(C)C)c1" then?
918

For "COc1cc(C(=O)N(NC(=O)c2ccc3c(c2C)CCCO3)C(C)(C)C)cc(OC)c1C" then?
1356

Continuing:
// lookup Fold Induction, 13B3 Assay, 3.3 uM | system=GAL4 DBD-CfEcR(DEF)/VP16AD-MmRXRE (Choristoneura fumiferana, UniProt O77240) | key= "CCc1c(OC)cccc1C(=O)NN(C(=O)c1nc(SC)cnc1Cl)C(C)(C)C"
3

For CCC(N(NC(=O)c1cccc(C)c1C)C(=O)c1cccc(C)c1)C(C)(C)C (centres unmarked) then?
544

For CCc1c(C(=O)NN(C(=O)c2ccccc2OC)C(C)(C)C)ccc2c1OCCO2 [RG-115244] then?
2404

###

- studySystem: GAL4 DBD (1-147)-CfEcR(DEF)/VP16AD-βRXREF-LmUSPEF (Choristoneura fumiferana, UniProt O77240)
- assayNotes: cell-based
- settings: 33 uM ligand; RLU ligand treated / RLU DMSO treated cells; average of two wells
measuredParameter: Fold Induction, 27-63 Assay, 33 uM
A bare number is all that is needed in reply.

Guide cases for Fold Induction, 27-63 Assay, 33 uM, answers given:
Give its Fold Induction, 27-63 Assay, 33 uM value. Item: CC(=O)c1cccc(C(=O)NN(C(=O)c2cc(C)cc(C)c2)C(C)(C)C)c1C [RG-100814]
2165

For CCc1c(OC)cccc1C(=O)NN(C(=O)c1ccc(Cl)cc1OC)C(C)(C)C [RG-101218] then?
1223

For CCCCC(N(NC(=O)c1ccc(CC)cc1)C(=O)c1cc(OC)c(C)c(OC)c1)C(C)(C)C (centres unmarked) [RG-115841] then?
437

For Cc1cc(C)cc(C(=O)N(NC(=O)c2cccc(OC(F)(F)F)c2C)C(C)(C)C)c1 [RG-101692] then?
591

For CCc1c(OC)cccc1C(=O)NN(C(=O)c1ccccc1OC)C(C)(C)C [RG-100725] then?
1050

For Cc1cc(C)cc(C(=O)N(NC(=O)c2ccc3c(c2Br)OCCO3)C(C)(C)C)c1 [RG-101340] then?
1549

For Cc1c(C(=O)NN(C(=O)c2cc(F)c(F)c(F)c2F)C(C)(C)C)ccc2c1CCCO2 [RG-115518] then?
1126

Now for the compound whose Fold Induction, 27-63 Assay, 33 uM we want.
Give its Fold Induction, 27-63 Assay, 33 uM value. Item: Cc1ccc([N+](=O)[O-])c(C(=O)N(NC(=O)c2ccc3c(c2C)OCCO3)C(C)(C)C)c1 [RG-115384]
1282

###

- studySystem: GAL4 DBD-CfEcR(DEF)/VP16AD-MmRXRE (Choristoneura fumiferana, UniProt O77240)
- assayNotes: 13B3 Assay (CHO stable cell line, luciferase reporter)
- settings: 3.3 uM ligand; RLU ligand treated / RLU DMSO treated cells; average of two wells
# maps each entry to its Fold Induction, 13B3 Assay, 3.3 uM

Guide cases for Fold Induction, 13B3 Assay, 3.3 uM, answers given:
Give its Fold Induction, 13B3 Assay, 3.3 uM value. Item: "CCc1c(OC)cccc1C(=O)NN(C(=O)c1c(F)cccc1F)C(C)(C)C"
386

For "COc1cc(C)cc(C(=O)N(NC(=O)c2cccc(OC)c2C)C(C)(C)C)c1" then?
4504

For "CCc1c(OC)cccc1C(=O)NN(C(=O)c1cc(Cl)ccc1[N+](=O)[O-])C(C)(C)C" then?
820

For COc1cccc(C(=O)NN(C(=O)c2cc(C)cc(C)c2)C(C)(C)C)c1C[S+](C)[O-] (centres unmarked) then?
1

For "CC(C)(C)N(NC(=O)c1ccc(Br)cc1)C(=O)c1cc(Cl)cc(Cl)c1" then?
623

For "Cc1c(C(=O)NN(C(=O)c2cc(F)c(F)cc2F)C(C)(C)C)ccc2c1CCCO2" then?
599

Now for the compound whose Fold Induction, 13B3 Assay, 3.3 uM we want.
Give its Fold Induction, 13B3 Assay, 3.3 uM value. Item: "CCc1ccc(C(=O)NN(C(=O)c2cccc(C)c2)C(C)(C)C)c(F)c1"
442

###

- Test system: Caco-2 monolayers
- assayNotes: Bi-directional permeability, CACO-2
- Format: in vitro ADME
- settings: Caco-2
measuredParameter: Papp, B-to-A Rep. 2

Give its Papp, B-to-A Rep. 2 value. Item: CC(O)c1ccc(C(=O)NN(C(=O)c2cc(CO)cc(CO)c2)C(C)(C)C)cc1 (stereo not shown)
0.95 10^−6 cm/s

For "COc1cnccc1C(=O)N(NC(=O)c1cccc(O)c1C)C(C)(C)C" then?
31.7 10^−6 cm/s

For "CCc1c(C(=O)NN(C(=O)c2ccc(F)c(C(F)(F)F)c2)C(C)(C)C)ccc2c1OCCO2" then?
1.48 10^−6 cm/s

For CCCC(N(NC(=O)c1cccc(OC)c1C)C(=O)c1cc(C)cc(C)c1)C(C)(C)C (stereo not shown) then?
15.4 10^−6 cm/s

For CCc1c(OC)cccc1C(=O)NN(C(=O)c1ccccc1[S+](C)[O-])C(C)(C)C (stereo not shown) then?
30.9 10^−6 cm/s

For "CC(=O)c1ccc(C(=O)NN(C(=O)c2cc(C(=O)O)cc(C(=O)O)c2)C(C)(C)C)cc1" then?
0.34 10^−6 cm/s

Continuing:
Give its Papp, B-to-A Rep. 2 value. Item: "CCc1c(OC)cccc1C(=O)NN(C(=O)c1ccccc1S(=O)(=O)O)C(C)(C)C"
1.67 10^−6 cm/s

###

# maps each entry to its 27-63 assay Rel Max FI
- studySystem: GAL4 DBD (1-147)-CfEcR(DEF)/VP16AD-βRXREF-LmUSPEF (Choristoneura fumiferana, UniProt O77240)
- assayNotes: cell-based
- settings: maximum fold induction at any concentration relative to that of GS-E ligand; CHO 27-63 cells
A bare number is all that is needed in reply.

Give its 27-63 assay Rel Max FI value. Item: "CCc1c(OC)cccc1C(=O)NN(C(=O)c1cc(Cl)ccc1OC)C(C)(C)C"
0.742

For "CCc1c(OC)cccc1C(=O)NN(C(=O)c1ccc(Cl)cc1OC)C(C)(C)C" then?
0.645

For "COc1cccc(C(=O)NN(C(=O)c2cc(C)cc(C)c2)C(C)(C)C)c1C" then?
1.017

For "CCc1ccc(C(=O)NN(C(=O)c2cc(C)cc(C)c2)C(C)(C)C)cc1" then?
0.721

For "COc1cc(C(=O)NN(C(=O)c2cc(C)cc(C)c2)C(C)(C)C)ccc1C" then?
0.893

Continuing:
Give its 27-63 assay Rel Max FI value. Item: "CCc1ccc(C(=O)NN(C(=O)c2ccccc2[N+](=O)[O-])C(C)(C)C)cc1"
0.606

For "Cc1ccc([N+](=O)[O-])c(C(=O)N(NC(=O)c2ccc3c(c2C)OCCO3)C(C)(C)C)c1" then?
0.645

Attribution: patent US9102648B1
